FYI, the data here is from paper PMC8124228.

Kindly state melting point for each of the entries shown.

Study these solved cases before continuing.
INSERT INTO measurements (smiles_string, assay_endpoint, measured) VALUES
  ('COc1cc(/C=C/C(=O)c2ccc(/C=C/c3ccc(O)c(OC)c3)cc2)ccc1O', 'melting point', '142 to 146 °C'),
  ('COc1ccc(/C=C/c2ccc(C(=O)/C=C/c3ccc(O)c(OC)c3)cc2)c(OC)c1', 'melting point', '78 to 82 °C'),
  ('COc1cc(/C=C/c2ccc(C(=O)/C=C/c3ccc(O)c(OC)c3)cc2)cc(OC)c1', 'melting point', '49 to 51 °C');

List melting point for every entry below, keeping the order given.
1. COc1cc(/C=C/C(=O)c2ccc(/C=C/c3ccc(OC)c(OC)c3)cc2)ccc1O
2. COc1cc(/C=C/C(=O)c2ccc(/C=C/c3cc(OC)c(OC)c(OC)c3)cc2)ccc1O
3. COc1cc(/C=C/C(=O)c2ccc(/C=C/c3cccc(OC)c3OC)cc2)ccc1O

1: 67 to 70 °C; 2: 74 to 77 °C; 3: 63 to 65 °C

List melting point for every entry below, keeping the order given.
1. COc1cc(/C=C/C(=O)c2ccc(/C=C/c3cc(OC)c(O)c(OC)c3)cc2)ccc1O
2. COc1ccc(/C=C/c2ccc(C(=O)/C=C/c3ccc(O)c(OC)c3)cc2)cc1

86 to 88 °C
187 to 190 °C
